Exercise: state measured pIC50 for each of the compounds provided.
# Test system: HEK-293T
# test: Cytotoxicity against human HEK293T cells after 24 hrs by MTT assay
# Assay type: cell-based
The quantity pIC50 is defined as the negative base-10 logarithm of the molar concentration.

Query string: State its pIC50 for this compound: COc1cc2c(cc1OC)-c1n[nH]c(/C=C/C(=O)c3cc(OC)c(OC)c(OC)c3)c1C2
Result string: 4.54

Query string: Give recorded pIC50. Nc1ccc(C(=O)/C=C/c2[nH]nc3c2Cc2ccccc2-3)cc1
Result string: 4.46

Query string: Provide pIC50 value for the following compound: COc1cc2c(cc1OC)-c1n[nH]c(/C=C/C(=O)c3ccc4c(c3)OCO4)c1C2
Result string: 4.74

Query string: Look up and state reported pIC50 for COc1ccc2c(c1)-c1n[nH]c(/C=C/C(=O)c3ccc(N)cc3)c1C2
Result string: 4.72

Query string: Identify pIC50 associated with the compound COc1ccc(C(=O)/C=C/c2[nH]nc3c2Cc2cc(OC)c(OC)cc2-3)cc1
Result string: 4.64

Query string: Give reported pIC50 value for COc1ccc(C(=O)/C=C/c2[nH]nc3c2Cc2ccc(OC)cc2-3)cc1
Result string: 4.35

Query string: Please indicate pIC50 recorded for COc1cc(C(=O)/C=C/c2[nH]nc3c2Cc2ccccc2-3)cc(OC)c1OC
Result string: 4.60

Query string: Assign pIC50 to the following record: COc1ccc(C(=O)/C=C/c2[nH]nc3c2Cc2ccccc2-3)cc1OC
Result string: 4.42

Query string: Could you please provide reported pIC50 for COc1ccc(C(=O)/C=C/c2[nH]nc3c2Cc2cc(OC)c(OC)cc2-3)cc1OC ? Thanks!
Result string: 4.34

Query string: Return reported pIC50. Input compound: COc1ccc2c(c1)-c1n[nH]c(/C=C/C(=O)c3ccc(OC)c(OC)c3)c1C2
Result string: 4.48

Query string: // Input: COc1ccc2c(c1)-c1n[nH]c(/C=C/C(=O)c3ccc4c(c3)OCO4)c1C2 . Output its pIC50 only.
Result string: 4.27

---

# Tested on: A549
# test: Cell cycle arrest in human A549 cells assessed as accumulation of cells at G2/M phase at 10 uM after 24 hrs by propidium iodide staining-based flow cytometric analysis (reference value: 21.7%)
# Type: functional
observed_property: Activity (%)
Entry rule: numbers only, all in %.

Query string: Provide A549 Activity reading for COc1cc2c(cc1OC)-c1n[nH]c(/C=C/C(=O)c3cc(OC)c(OC)c(OC)c3)c1C2 .
Result string: 33.7

Query string: # assay system A549: give Activity of C#Cc1cccc(Nc2ncnc3cc(OCCOC)c(OCCOC)cc23)c1
Result string: 26

Query string: Give reported Activity for COc1ccc2c(c1)-c1n[nH]c(/C=C/C(=O)c3cc(OC)c(OC)c(OC)c3)c1C2 (A549)
Result string: 29.6

Query string: Find the measured Activity of COc1ccc(C(=O)/C=C/c2[nH]nc3c2Cc2cc(OC)c(OC)cc2-3)cc1OC with A549 as test system.
Result string: 40.6

---

# Test system: A549
# test: Cell cycle arrest in human A549 cells assessed as accumulation of cells at G0/G1 phase at 10 uM after 24 hrs by propidium iodide staining-based flow cytometric analysis (reference value: 71.1%)
# Type: functional
Hi there, I'd appreciate the recorded Activity for every entry that follows.
Number only, in %; omit the unit.

Query string: Answer with the recorded Activity of C#Cc1cccc(Nc2ncnc3cc(OCCOC)c(OCCOC)cc23)c1 [ERLOTINIB] only.
Result string: 64.1

Query string: Look up and report measured Activity for this entry: COc1cc2c(cc1OC)-c1n[nH]c(/C=C/C(=O)c3cc(OC)c(OC)c(OC)c3)c1C2
Result string: 51.1

Query string: Look up Activity of COc1ccc(C(=O)/C=C/c2[nH]nc3c2Cc2cc(OC)c(OC)cc2-3)cc1OC and report it.
Result string: 45.9

Query string: # return recorded Activity for entry COc1ccc2c(c1)-c1n[nH]c(/C=C/C(=O)c3cc(OC)c(OC)c(OC)c3)c1C2
Result string: 59.5
